- Test system: OVCAR-8
- MEASUREMENT DESCRIPTION: NCI tumour cell line growth inhibition, 48 h
Activity calls are given as the source filed them. No stated cut-off is given here; in the data, active = GI50 up to about 1.1 µM and inactive = higher. Where a SMILES comes first, the peptide text is derived from it. [ ]: non-standard residue; d: D form. The star is where a group is joined. Hyp = O=C(O)[CH]1C[CH](O)CN1; Cbz = O=C(OCc1ccccc1)*
Output constraint: value belongs to active, inactive

Previously resolved entries follow.
# MOLECULE, TARGET OR SYSTEM, CATEGORY LABEL
rows = [
    ("COc1ccc2cc(C(=O)O)ccc2c1OC", "OVCAR-8", "inactive"),
    ("NC(=O)CNC(=O)C1CC(O)CN1C(=O)C1CCCN1C(=O)OCc1ccccc1 (stereo not drawn) (Cbz-Pro-[Hyp]-Gly-NH2; configuration not given here)", "OVCAR-8", "inactive"),
    ("COc1ccc(-n2c(=O)c3nc[nH]c3n(-c3ccc(OC)cc3)c2=S)cc1", "OVCAR-8", "inactive"),
    ("CCOC(=O)C(NC(=O)C(CCCCNP(=O)(OCC)OCC)NC(=O)C(C)NC(C)=O)C(C)C (centres undefined)", "OVCAR-8", "inactive"),
    ("C/C1=C/C(C)CC(C)OC(=O)C(C)NC(=O)C(Cc2ccc(O)c(I)c2)N(C)C(=O)C(C)NC(=O)C(C)C1 (centres undefined)", "OVCAR-8", "active"),
    ("Cc1c2ccccc2c(C2C3C(=O)N(c4cccc5ccccc45)C(=O)C3ON2Cc2ccc(CC(N)=O)cc2)c2ccccc12 (centres undefined)", "OVCAR-8", "inactive"),
    ("O=C(O)CN1CCN(CC(=O)N2CCN(C(=O)OCc3ccccc3)CC2)CCN(CC(=O)O)CCN(CC(=O)N2CCN(C(=O)OCc3ccccc3)CC2)CC1", "OVCAR-8", "inactive"),
    ("CC(C)(C)[Si](C)(C)OCC1CCC(n2cnc3c(=O)[nH]cnc32)O1 (centres undefined)", "OVCAR-8", "inactive"),
]

**Q:** GET /call?item= `CN(C)CCNC(=O)c1cnn(C)c1[N+](=O)[O-]` returns the recorded outcome of this test.
**A:** inactive

**Q:** GET /call?item= `O=c1[nH]nc(-c2ccccc2)n1-n1cccc1` returns the recorded outcome of this test.
**A:** inactive

**Q:** GET /call?item= `COc1cc2c[n+](C)c3c4cc(OC)c(OCc5ccccc5)cc4c(OCc4ccccc4)cc3c2cc1OC` returns the recorded outcome of this test.
**A:** inactive
